TARGET_UNDER_TEST: T1, 4H3029-AA
T1 chain: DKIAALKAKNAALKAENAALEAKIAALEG
PROTOCOL_NOTES: two-hybrid library CCmax;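 note: natural log of median RNA to DNA barcode read ratio; higher means stronger binding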
EXPERIMENTAL_PARAMETERS: mean of both orientations
PROPERTY_MEASURED: interaction score

The examples below pair each entry with its known result.
{"columns": ["BINDER", "interaction score"],
 "data": [
  ["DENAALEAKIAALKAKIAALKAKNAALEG [4H1391-AA]", -1.41],
  ["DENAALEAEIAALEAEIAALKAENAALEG [4H1035-AA]", -2.17]
]}

a. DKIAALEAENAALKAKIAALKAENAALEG [4H2283-AA]
b. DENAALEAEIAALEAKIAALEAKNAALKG [4H1064-AA]
// compare measured interaction score, left a , right b , return larger Your choice should be expressed through its label.
b
(b: -1.16, a: -1.74)

I. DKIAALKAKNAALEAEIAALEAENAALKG [4H2948-AA]
II. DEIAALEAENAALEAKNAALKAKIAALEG [4H189-AA]
Determine, for I and II , which has the greater value of interaction score. Give the chosen item's label as your response.
II
(II: 2.05, I: -1.4)

A. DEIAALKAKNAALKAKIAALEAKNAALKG [4H1000-AA]
B. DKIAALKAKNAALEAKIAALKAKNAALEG [4H2991-AA]
When the recorded interaction score values are compared, which is smaller: that of A or that of B ? Please reply using the label of the selected record.
B
(B: -1.76, A: -0.99)
